Where do the numbers come from? From patent US6864396B2.

# Assay type: physicochemical
Answer each item with its documented Concentration.
Answer with a number only, understood to be in µM.

Look up Concentration for this compound: c1ccc2cc3cc4cc5ccccc5cc4cc3cc2c1 [pentacene] 25.4

Look up Concentration for this compound: Cc1ccc2cc3cc4cc5ccc(C)cc5cc4cc3cc2c1 [2,10-dimethylpentacene, 2,10-Dimethylpentacene] 6.06

Look up Concentration for this compound: CCCCCCCCCc1ccc2cc3cc4cc5cc(CCCCCCCCC)ccc5cc4cc3cc2c1 [2,9-dinonylpentacene, 2,9-Dinonylpentacene] 243

Look up Concentration for this compound: CC(CCc1ccc2cc3cc4cc5cc(CCC(C)CC(C)(C)C)ccc5cc4cc3cc2c1)CC(C)(C)C (stereo not shown) [2,9-di(3,5,5-trimethylhexyl)pentacene, 2,9-Di(3,5,5-trimethylhexyl)pentacene] 3350

Look up Concentration for this compound: CCCCCCc1ccc2cc3cc4cc5cc(CCCCCC)ccc5cc4cc3cc2c1 [2,9-dihexylpentacene, 2,9-Dihexylpentacene] 172

Look up Concentration for this compound: Cc1ccc2cc3cc4cc5cc(C)ccc5cc4cc3cc2c1 [2,9-dimethylpentacene, 2,9-Dimethylpentacene] 3.59

Look up Concentration for this compound: CCCCCCCCCCCCc1ccc2cc3cc4cc5cc(CCCCCCCCCCCC)ccc5cc4cc3cc2c1 [2,9-didodecylpentacene, 2,9-Didodecylpentacene] 10.7

###

# Format: physicochemical
Label t when Relative Absorbance >= 7; otherwise f.

Hi team, for Cc1ccc2cc3cc4cc5ccc(C)cc5cc4cc3cc2c1 [2,10-dimethylpentacene, 2,10-Dimethylpentacene] , is the recorded Relative Absorbance at or above 7? f

Hi team, for CCCCCCc1ccc2cc3cc4cc5cc(CCCCCC)ccc5cc4cc3cc2c1 [2,9-dihexylpentacene, 2,9-Dihexylpentacene] , is the recorded Relative Absorbance at or above 7? f

Hi team, for c1ccc2cc3cc4cc5ccccc5cc4cc3cc2c1 [pentacene] , is the recorded Relative Absorbance at or above 7? f

Hi team, for CCCCCCCCCCCCc1ccc2cc3cc4cc5cc(CCCCCCCCCCCC)ccc5cc4cc3cc2c1 [2,9-didodecylpentacene, 2,9-Didodecylpentacene] , is the recorded Relative Absorbance at or above 7? f

Hi team, for CCCCCCCCCc1ccc2cc3cc4cc5cc(CCCCCCCCC)ccc5cc4cc3cc2c1 [2,9-dinonylpentacene, 2,9-Dinonylpentacene] , is the recorded Relative Absorbance at or above 7? t

Hi team, for Cc1ccc2cc3cc4cc5cc(C)ccc5cc4cc3cc2c1 [2,9-dimethylpentacene, 2,9-Dimethylpentacene] , is the recorded Relative Absorbance at or above 7? f

###

# Assay type: physicochemical
# Particulars: solubility in THF, 25° C.; calculated with extinction coefficient of pentacene
Reported Endpoint: Weight %

Look up Weight % for this molecule: CC(CCc1ccc2cc3cc4cc5cc(CCC(C)CC(C)(C)C)ccc5cc4cc3cc2c1)CC(C)(C)C (stereo not shown) 2.00 × 10^−1 Weight %

Look up Weight % for this molecule: `Cc1ccc2cc3cc4cc5ccc(C)cc5cc4cc3cc2c1` 2.77 × 10^−4 Weight %

Look up Weight % for this molecule: `CCCCCCc1ccc2cc3cc4cc5cc(CCCCCC)ccc5cc4cc3cc2c1` 8.62 × 10^−3 Weight %

Look up Weight % for this molecule: `CCCCCCCCCCCCc1ccc2cc3cc4cc5cc(CCCCCCCCCCCC)ccc5cc4cc3cc2c1` 7.38 × 10^−4 Weight %

Look up Weight % for this molecule: `Cc1ccc2cc3cc4cc5cc(C)ccc5cc4cc3cc2c1` 1.64 × 10^−4 Weight %

Look up Weight % for this molecule: `CCCCCCCCCc1ccc2cc3cc4cc5cc(CCCCCCCCC)ccc5cc4cc3cc2c1` 1.45 × 10^−2 Weight %

Look up Weight % for this molecule: `c1ccc2cc3cc4cc5ccccc5cc4cc3cc2c1` 7.95 × 10^−4 Weight %
